# measurementDescription: soluble on expression in E. coli; label from the status in PepcDB or PDB records
endpointName: soluble on expression in E. coli

seqString	endpointName	readoutValue
MSLGFHEVRFPTNLSFGSIGGPERRTEIVTLVNGFEERNSLWAHSRRRYDAGVALRSLDDIQALLAFFEARRGQLYGFRWKDWADYRSCPATASPGPKDQPLGIGDGISREFALVKTYRSGSEQYVRPVAKPVAGSVKVAVAGAVLVEGAGFSVDETRGLVTLAAAPAEGAAVTAGFEFDVPVRFDTDRIQISMASFQAGEVPSVPVMEVRVEGHHHHHH	soluble on expression in E. coli	soluble
MNPVHILAKKGEVAERVLVVGDPGRARLLSTLLQNPKLTNENRGFLVYTGKYNGETVSIATHGIGGPSIAIVLEELAMLGANVFIRYGTTGALVPYINLGEYIIVTGASYNQGGLFYQYLRDNACVASTPDFELTNKLVTSFSKRNLKYYVGNVFSSDAFYAEDEEFVKKWSSRGNIAVEMECATLFTLSKVKGWKSATVLVVSDNLAKGGIWITKEELEKSVMDGAKAVLDTLTS	soluble on expression in E. coli	soluble
MSQYERFDSVLLSMAQQLSGGVPEMLDVLFEFLSRKTDFYSGAGVDQARTLLLEKFDKHGGKAMKEAEEAKKRKEEQERKLAERRAAQKAKEEEEFRNAKVVEVTDEEAAAFEKEQAKNSVENLEKFVDNEGETSKDAEVEDEDSKLMKPNSGNGADLAKYQWTQTLQELEVKIPIAAGFAIKSRDVVVKIEKTSVSVGLKNQAPIVDGKLPHAIKVENCNWVIENGKAIVLTLEKINDMEWWNRFLDSDPPINTKEVKPENSKLSDLDGETRAMVEKMMYDQRQKEMGLPTSDEKKKHDMLQQFMKQHPEMDFSNAKIG	soluble on expression in E. coli	soluble
